System name: Ba/F3_KRAS^G12D cells (Homo sapiens, UniProt P01116, G12D, cells depend on it)
Sequence (P01116 whole entry G12D): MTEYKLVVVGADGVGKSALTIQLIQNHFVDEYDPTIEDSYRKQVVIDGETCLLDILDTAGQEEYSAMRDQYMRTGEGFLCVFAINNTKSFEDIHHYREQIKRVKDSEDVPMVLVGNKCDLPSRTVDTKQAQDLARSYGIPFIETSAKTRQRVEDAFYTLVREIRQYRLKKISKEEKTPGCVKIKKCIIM
Experiment summary: Ba/F3 KRAS G12D cell proliferation assay (CellTiter-Glo)
Assay type: cell-based
Assay setup: treated for 3 days, cell-titer Glo, cell growth inhibition, read-out: BaF3_KRAS^G12D IC50
Measured GI50 values are reported for all entries that follow.

- Molecule: "C#Cc1c(F)ccc2cc(O)cc(-c3c(OC)cc4c(N5CC6CCC(C5)N6)nc(OC[C@@]56CCCN5C[C@H](F)C6)nc4c3F)c12 [Compound 163]"
  GI50: "< 500 nM"
- Molecule: "C#Cc1c(F)ccc2cc(O)cc(-c3c(Cl)cc4c(N5CC6CCC(C5)N6)nc(OC[C@@]56CCCN5C[C@H](F)C6)nc4c3F)c12 (single isomer, unassigned) [Compound 154]"
  GI50: "< 500 nM"
- Molecule: "C#Cc1c(F)ccc2cc(O)cc(-c3c(Cl)cc4c(N5CC6CCC(C5)N6)nc(OC[C@@]56CCCN5C[C@H](F)C6)nc4c3F)c12 [Compound 146]"
  GI50: "< 500 nM"
- Molecule: "Cc1cccc2cc(O)cc(-c3c(C#N)cc4c(N5CC6CCC(C5)N6)nc(OC[C@@]56CCCN5C[C@H](F)C6)nc4c3F)c12 [Compound 88]"
  GI50: "< 500 nM"
- Molecule: "Cc1cccc2[nH]nc(-c3c(Cl)cc4c(N5CC6CCC(C5)N6)nc(OC[C@@H]5CCCN5C)nc4c3F)c12 [Compound 75]"
  GI50: "500 to 5000 nM"

====

System name: Ba/F3_KRAS^G12D cells (Homo sapiens, UniProt P01116, G12D, cells depend on it)
Experiment summary: Ba/F3 KRAS G12D cell proliferation assay (CellTiter-Glo)
Type: cell-based
Assay setup: treated for 3 days, cell-titer Glo, cell growth inhibition, read-out: BaF3_KRAS^G12D IC50
Measured GI50 values are reported for all entries that follow.
Experimental readout: GI50

- Compound: "Oc1cc(-c2c(Cl)cc3c(N4CC5CCC(C4)N5)nc(OC[C@@]45CCCN4C[C@H](F)C5)nc3c2F)c2c(Cl)c(F)ccc2c1 [Compound 74]"
  Result: "< 500 nM"
- Compound: "C#Cc1c(F)ccc2cc(O)cc(-c3c(Cl)cc4c(N5CC6CCC(C5)N6)nc(OC[C@@]56CCCN5C[C@H](F)C6)nc4c3F)c12 (single isomer, unassigned) [Compound 155]"
  Result: "< 500 nM"
- Compound: "Oc1ccc2ccccc2c1-c1c(Cl)cc2c(N3CC4CCC(C3)N4)nc(OCC34CCCN3CCC4)nc2c1F"
  Result: "> 5000 nM"
- Compound: "C[C@@H]1CN(c2nc(OC[C@@H]3CCCN3C)nc3c(F)c(-c4cc(O)cc5cccc(Cl)c45)c(Cl)cc23)[C@@H](C)CN1"
  Result: "500 to 5000 nM"
- Compound: "CN1CCOCC1COc1nc(N2CC3CCC(C2)N3)c2cc(Cl)c(-c3cc(O)cc4ccccc34)c(F)c2n1 (centres unmarked)"
  Result: "500 to 5000 nM"

====

System name: recombinant human KRAS^G12D protein (Homo sapiens, UniProt P01116, G12D)
Sequence (P01116 1-188 isoform P01116-2 G12D): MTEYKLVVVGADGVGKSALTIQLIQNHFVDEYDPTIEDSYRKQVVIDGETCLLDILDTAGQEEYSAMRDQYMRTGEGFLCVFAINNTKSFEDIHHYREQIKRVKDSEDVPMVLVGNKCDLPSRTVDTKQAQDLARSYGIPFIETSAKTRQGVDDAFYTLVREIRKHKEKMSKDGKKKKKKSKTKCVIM
Experiment summary: Temperature-dependent Fluorescence (TdF) KRAS G12D protein binding assay
Assay setup: 6 μM KRAS^G12D protein, 10 μM compound, Sypro Orange; Kd calculated from the fluorescent shift
Measured Kd values are reported for all entries that follow.

- Molecule: "Fc1c(-c2cccc3cccc(Cl)c23)c(Cl)cc2c(N3CCNCC3)nc(OCC34CCCN3CCC4)nc12"
  Kd: "> 5000 nM"
- Molecule: "CN1C[C@H](O)C[C@H]1COc1nc(N2CC3CCC(C2)N3)c2cc(Cl)c(-c3cc(O)cc4ccccc34)c(F)c2n1"
  Kd: "< 500 nM"
- Molecule: "CN1CCC2CN(c3nc(N4CC5CCC(C4)N5)c4cc(Cl)c(-c5cc(O)cc6ccccc56)c(F)c4n3)CC2C1 (centres unmarked)"
  Kd: "> 5000 nM"
- Molecule: "COc1nc(N2CC3CCC(C2)N3)c2cc(Cl)c(-c3ccc(F)c4sc(N)nc34)c(F)c2n1"
  Kd: "500 to 5000 nM"
- Molecule: "C[C@@H]1CN(c2nc(OC[C@@H]3CCCN3C)nc3c(F)c(-c4cc(O)cc5cccc(Cl)c45)c(Cl)cc23)[C@@H](C)CN1"
  Kd: "> 5000 nM"
- Molecule: "CN1CCC1COc1nc(N2CC3CCC(C2)N3)c2cc(Cl)c(-c3cc(O)cc4ccccc34)c(F)c2n1 (centres unmarked)"
  Kd: "< 500 nM"
- Molecule: "Oc1cc(-c2c(Cl)cc3c(N4CC5CCC(C4)N5)nc(OC[C@@]45CCCN4C[C@H](F)C5)nc3c2F)c2c(Cl)cccc2c1 (single isomer, unassigned) [Compound 104]"
  Kd: "> 5000 nM"
- Molecule: "N#Cc1cc2c(N3CC4CCC(C3)N4)nc(OC[C@@]34CCCN3C[C@H](F)C4)nc2c(F)c1-c1cc(O)cc2ccc(F)c(Cl)c12"
  Kd: "< 500 nM"
- Molecule: "CN1CCC[C@H]1COc1nc(N2CCNCC2)c2cc(Cl)c(-c3cc(O)cc4ccccc34)c(F)c2n1"
  Kd: "> 5000 nM"
- Molecule: "N#Cc1cc2c(N3CC4CCC(C3)N4)nc(OC[C@@]34CCCN3C[C@H](F)C4)nc2c(F)c1-c1cccc2cccc(Cl)c12"
  Kd: "500 to 5000 nM"
- Molecule: "CN1CCC[C@H]1COc1nc(N2CC3CCCC(C2)N3)c2cc(Cl)c(-c3cc(O)cc4cccc(Cl)c34)c(F)c2n1"
  Kd: "500 to 5000 nM"
- Molecule: "C#Cc1c(F)ccc2cc(O)cc(-c3cc(Cl)c4c(N5CC6CCC(C5)N6)nc(OC[C@@]56CCCN5C[C@H](F)C6)nc4c3F)c12"
  Kd: "< 500 nM"
- Molecule: "Nc1nc2c(-c3c(Cl)cc4c(N5CC6CCC(C5)N6)nc(OC[C@@]56CCCN5C[C@H](F)C6)nc4c3F)cc(C(F)(F)F)cc2s1"
  Kd: "< 500 nM"
- Molecule: "CN1C[C@H](F)C[C@H]1COc1nc(N2CC3CCC(C2)N3)c2cc(Cl)c(-c3cc(O)cc4ccccc34)c(F)c2n1"
  Kd: "< 500 nM"
- Molecule: "CN1CCC[C@H]1COc1nc(N2CCC3NCC32)c2cc(Cl)c(-c3cc(O)cc4cccc(Cl)c34)c(F)c2n1 (some centres unmarked)"
  Kd: "> 5000 nM"
- Molecule: "Oc1cc(-c2c(Cl)cc3c(N4CC5CCC(C4)N5)nc(OC[C@@]45CCCN4C[C@H](F)C5)nc3c2F)c2c(Cl)c(F)ccc2c1 (single isomer, unassigned) [Compound 139]"
  Kd: "< 500 nM"
- Molecule: "Cc1cccc2cc(O)cc(-c3c(C#N)cc4c(N5CC6CCC(C5)N6)nc(OC[C@@]56CCCN5C[C@H](F)C6)nc4c3F)c12"
  Kd: "< 500 nM"
- Molecule: "Nc1cccc(F)c1-c1c(Cl)cc2c(N3C4CCC3CNC4)nc(OCC34CCCN3CCC4)nc2c1F"
  Kd: "> 5000 nM"
- Molecule: "N#Cc1cc2c(N3CC4CCC(C3)N4)nc(OC[C@@]34CCCN3C[C@H](F)C4)nc2c(F)c1-c1cc(O)cc2ccccc12"
  Kd: "< 500 nM"
- Molecule: "N#Cc1cc2c(N3CC4CCC(C3)N4)nc(OC[C@@]34CCCN3C[C@H](F)C4)nc2c(F)c1-c1ccc(F)c2sc(N)nc12"
  Kd: "< 500 nM"
